target: recombinant human NAE enzyme (Homo sapiens); construct: His (N); made in house; host or cells: Sf9 insect cells (baculovirus, Bac-to-Bac); assay: Nedd8-Activating Enzyme (NAE) HTRF Assay; assay type: biochemical; conditions: 20 μM ATP, bound given in nM
Sequence (Q8TBC4 whole entry): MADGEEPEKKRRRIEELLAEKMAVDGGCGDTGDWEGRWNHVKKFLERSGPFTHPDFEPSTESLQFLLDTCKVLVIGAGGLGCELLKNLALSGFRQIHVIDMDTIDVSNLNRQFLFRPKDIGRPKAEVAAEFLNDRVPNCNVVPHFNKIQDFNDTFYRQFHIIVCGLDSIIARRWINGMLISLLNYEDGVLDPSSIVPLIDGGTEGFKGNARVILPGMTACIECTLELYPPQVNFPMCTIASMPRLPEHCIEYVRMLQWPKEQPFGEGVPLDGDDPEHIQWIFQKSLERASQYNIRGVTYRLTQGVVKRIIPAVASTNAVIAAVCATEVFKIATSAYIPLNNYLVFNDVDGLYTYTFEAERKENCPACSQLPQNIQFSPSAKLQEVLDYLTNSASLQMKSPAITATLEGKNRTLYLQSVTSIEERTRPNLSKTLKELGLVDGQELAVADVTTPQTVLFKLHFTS
Sequence (Q13564 whole entry partner): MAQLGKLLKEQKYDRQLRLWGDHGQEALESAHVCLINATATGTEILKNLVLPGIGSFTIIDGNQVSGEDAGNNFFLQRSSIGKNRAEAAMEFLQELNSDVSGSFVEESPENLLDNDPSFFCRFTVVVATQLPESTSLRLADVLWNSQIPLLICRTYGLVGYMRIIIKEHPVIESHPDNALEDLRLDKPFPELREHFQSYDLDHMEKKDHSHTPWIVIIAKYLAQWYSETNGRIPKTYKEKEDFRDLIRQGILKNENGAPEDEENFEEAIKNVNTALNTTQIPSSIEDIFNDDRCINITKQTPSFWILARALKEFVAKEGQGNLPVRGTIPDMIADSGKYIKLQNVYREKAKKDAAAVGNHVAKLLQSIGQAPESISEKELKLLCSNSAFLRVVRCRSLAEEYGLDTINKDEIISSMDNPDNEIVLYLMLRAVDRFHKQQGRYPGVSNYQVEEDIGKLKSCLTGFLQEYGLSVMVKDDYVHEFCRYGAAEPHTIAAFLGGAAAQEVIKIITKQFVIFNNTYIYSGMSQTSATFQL
readout.label: IC50

>>> reported("Cc1nc(N[C@H]2CCc3ccccc32)cc(N[C@@H]2C[C@H](COS(N)(=O)=O)[C@@H](O)[C@H]2O)n1")
"≤ 500 nM"
>>> reported("NS(=O)(=O)OC[C@H]1C[C@@H](Nc2cc(N[C@H]3CCc4c(F)ccc(F)c43)ncn2)[C@H](O)[C@@H]1O")
"≤ 500 nM"
>>> reported("NS(=O)(=O)OC[C@H]1C[C@@H](Nc2cc(N[C@@H]3CCc4ccccc43)ncn2)[C@H](O)[C@@H]1O")
"≤ 500 nM"
>>> reported("NS(=O)(=O)OC[C@@H]1C[C@@H](Nc2ncnc3[nH]c(-c4ccccc4Oc4ccccc4)nc23)C[C@@H]1O")
"≤ 500 nM"
>>> reported("NS(=O)(=O)OC[C@@H]1C[C@@H](Nc2ncnc3[nH]c(-c4cccc(Cl)c4)nc23)C[C@@H]1O")
"≤ 500 nM"
>>> reported("CC1(C)C[C@H](Nc2cc(O[C@@H]3C[C@@H](COS(N)(=O)=O)[C@@H](O)C3)ccn2)c2ccc(Cl)cc21")
"> 500 nM"
>>> reported("CO[C@H]1CC(C)(C)c2ccccc2[C@H]1Nc1cc(O[C@@H]2C[C@@H](COS(N)(=O)=O)[C@@H](O)C2)ncn1")
"≤ 500 nM"
>>> reported("NS(=O)(=O)OC[C@@H]1C[C@@H](Nc2ncnc3[nH]c(C4CCCCC4)nc23)C[C@@H]1O")
"≤ 500 nM"
>>> reported("CC1(C)C[C@H](Nc2cc(O[C@@H]3C[C@@H](COS(N)(=O)=O)[C@@H](O)C3)ncn2)c2ccccc21")
"≤ 500 nM"
>>> reported("NS(=O)(=O)OC[C@@H]1C[C@@H](Oc2ncnc3nc(-c4ccc(N5CCCC5)c5ccccc45)[nH]c23)C[C@@H]1O")
"≤ 500 nM"
>>> reported("NS(=O)(=O)OC[C@@H]1C[C@@H](Nc2cc(N[C@H]3CCc4ccccc43)nc(=O)[nH]2)C[C@@H]1O")
"> 500 nM"
>>> reported("COc1cccc(-c2nc3c(N[C@@H]4C[C@@H](COS(N)(=O)=O)[C@@H](O)C4)ncnc3[nH]2)c1")
"≤ 500 nM"
>>> reported("NS(=O)(=O)OC[C@@H]1C[C@@H](Oc2cc(N[C@H]3CCCc4ccccc43)ncn2)C[C@@H]1O")
"≤ 500 nM"
>>> reported("NS(=O)(=O)OC[C@@H]1C[C@@H](Nc2ncnc3nc(-c4ccc(OCc5ccccc5)cc4)[nH]c23)C[C@@H]1O")
"≤ 500 nM"
>>> reported("CN(C)C[C@H]1Cc2ccccc2[C@H]1Nc1cc(O[C@@H]2C[C@@H](COS(N)(=O)=O)[C@@H](O)C2)ncn1")
"> 500 nM"
>>> reported("NS(=O)(=O)OC[C@@H]1C[C@@H](Oc2cc(NCc3cccc4ccccc34)ncn2)C[C@@H]1O")
"≤ 500 nM"
>>> reported("C[C@H]1Cc2ccccc2[C@H]1Nc1cc(O[C@@H]2C[C@@H](COS(N)(=O)=O)[C@@H](O)C2)ncn1")
"≤ 500 nM"
>>> reported("NS(=O)(=O)OC[C@H]1CC[C@H](Oc2ncnc3[nH]c(-c4cccc5ccccc45)nc23)C1")
"> 500 nM"
>>> reported("CN(C)c1ccc(-c2nc3ncnc(O[C@@H]4C[C@@H](COS(N)(=O)=O)[C@@H](O)C4)c3[nH]2)c2ccccc12")
"≤ 500 nM"
>>> reported("NS(=O)(=O)OC[C@@H]1C[C@@H](Nc2ncnc3[nH]c(-c4cccc5c4oc4ccccc45)nc23)C[C@@H]1O")
"≤ 500 nM"
>>> reported("NS(=O)(=O)OC[C@@H]1C[C@@H](Nc2ncnc3oc(-c4ccccc4)nc23)C[C@@H]1O")
"≤ 500 nM"
>>> reported("NS(=O)(=O)OC[C@@H]1C[C@@H](Oc2ncnc3c2ncn3Cc2ccccc2)C[C@@H]1O")
"> 500 nM"
>>> reported("COc1ccc2c(c1)[C@H](Nc1cc(O[C@@H]3C[C@@H](COS(N)(=O)=O)[C@@H](O)C3)ncn1)[C@H](OC)CC2")
"> 500 nM"
>>> reported("OC[C@@H]1C[C@@H](Nc2ncnc3[nH]c(-c4cccc5c4CCCC5)nc23)C[C@@H]1O")
"> 500 nM"
>>> reported("CO[C@H]1CCc2ccccc2[C@H]1Nc1cc(O[C@@H]2C[C@@H](COS(N)(=O)=O)[C@@H](O)C2)ncn1")
"≤ 500 nM"
>>> reported("NS(=O)(=O)OC[C@H]1C[C@@H](Nc2ncnc(N[C@H]3CCc4ccccc43)n2)[C@H](O)[C@@H]1O")
"≤ 500 nM"
>>> reported("CO[C@@H]1Cc2ccccc2[C@@H]1Oc1cc(O[C@@H]2C[C@@H](COS(N)(=O)=O)[C@@H](O)C2)ncn1")
"> 500 nM"

FYI, the data here is from patent US9718788B2.
